System: Pseudomonas aeruginosa
ASSAY_EXPLANATION: Antimicrobial activity against Pseudomonas aeruginosa MTCC 741 after 24 hrs by broth microdilution assay
Type: functional
REPORTED_CONDITIONS: MTCC 741, 24 h
PROPERTY_NAME: MIC (µg/mL)
Respond with the bare value in µg/mL.

| COMPOUND | PROPERTY_NAME | OBSERVED_MEASUREMENT |
| --- | --- | --- |
| NS(=O)(=O)c1ccc(N2N=C(c3ccccc3)CC2c2cn(-c3ccccc3)nc2-c2ccc(Br)cc2)cc1 (stereo not drawn) | MIC | 32 |

// below: MIC requested for another compound
Just so you know, measured MIC for Cc1ccc(C2=NN(c3ccc(S(N)(=O)=O)cc3)C(c3cn(-c4ccccc4)nc3-c3ccccc3)C2)cc1 (stereo not drawn) came out at 64

###

System: Rattus norvegicus
ASSAY_EXPLANATION: Antiinflammatory activity in Wistar albino rat assessed as inhibition of carrageenan-induced paw edema at 50 mg/kg, po administered 30 mins before carrageenan challenge measured after 60 mins relative to control
Assay type: functional
PROPERTY_NAME: inhibition in vivo at 50 mg/kg (%)
Respond with the bare value in %.

Illustrative cases are given below, each with its answer.
| MOLECULE | inhibition in vivo at 50 mg/kg [%] |
| --- | --- |
| NS(=O)(=O)c1ccc(N2N=C(c3ccc(Br)cc3)CC2c2cn(-c3ccccc3)nc2-c2ccccc2)cc1 (stereo unspecified) | 23 |
| NS(=O)(=O)c1ccc(N2N=C(c3ccc(F)cc3)CC2c2cn(-c3ccccc3)nc2-c2ccccc2)cc1 (stereo unspecified) | 25 |
| Cc1ccc(-c2nn(-c3ccccc3)cc2C2CC(c3ccccc3)=NN2c2ccc(S(N)(=O)=O)cc2)cc1 (stereo unspecified) | 14 |
| NS(=O)(=O)c1ccc(N2N=C(c3ccc(F)cc3)CC2c2cn(-c3ccccc3)nc2-c2ccc(F)cc2)cc1 (stereo unspecified) | 8 |
| Cc1ccc(-c2nn(-c3ccccc3)cc2C2CC(c3ccc(F)cc3)=NN2c2ccc(S(N)(=O)=O)cc2)cc1 (stereo unspecified) | 43 |
| NS(=O)(=O)c1ccc(N2N=C(c3ccccc3)CC2c2cn(-c3ccccc3)nc2-c2ccc(F)cc2)cc1 (stereo unspecified) | 14 |
| NS(=O)(=O)c1ccc(N2N=C(c3ccc(F)cc3)CC2c2cn(-c3ccccc3)nc2-c2ccc(Br)cc2)cc1 (stereo unspecified) | 26 |
| Cc1ccc(C2=NN(c3ccc(S(N)(=O)=O)cc3)C(c3cn(-c4ccccc4)nc3-c3ccc(C)cc3)C2)cc1 (stereo unspecified) | 19 |

Just so you know, measured inhibition in vivo at 50 mg/kg for NS(=O)(=O)c1ccc(N2N=C(c3ccccc3)CC2c2cn(-c3ccccc3)nc2-c2ccccc2)cc1 (stereo unspecified) came out at 4

Just so you know, measured inhibition in vivo at 50 mg/kg for NS(=O)(=O)c1ccc(N2N=C(c3ccccc3)CC2c2cn(-c3ccccc3)nc2-c2ccc(Br)cc2)cc1 (stereo unspecified) came out at 26

Just so you know, measured inhibition in vivo at 50 mg/kg for Cc1ccc(C2=NN(c3ccc(S(N)(=O)=O)cc3)C(c3cn(-c4ccccc4)nc3-c3ccccc3)C2)cc1 (stereo unspecified) came out at 17

###

Test system: Rattus norvegicus
ASSAY_EXPLANATION: Antiinflammatory activity in Wistar albino rat assessed as inhibition of carrageenan-induced paw edema at 50 mg/kg, po administered 30 mins before carrageenan challenge measured after 90 mins relative to control
Assay type: functional
Measured inhibition in vivo at 50 mg/kg by item
Respond with the bare value in %.

Illustrative cases are given below, each with its answer.
| MOLECULE | inhibition in vivo at 50 mg/kg [%] |
| --- | --- |
| NS(=O)(=O)c1ccc(N2N=C(c3ccc(Br)cc3)CC2c2cn(-c3ccccc3)nc2-c2ccccc2)cc1 (stereo not drawn) | 22 |
| NS(=O)(=O)c1ccc(N2N=C(c3ccc(F)cc3)CC2c2cn(-c3ccccc3)nc2-c2ccccc2)cc1 (stereo not drawn) | 23 |
| NS(=O)(=O)c1ccc(N2N=C(c3ccc(F)cc3)CC2c2cn(-c3ccccc3)nc2-c2ccc(Br)cc2)cc1 (stereo not drawn) | 17 |

Just so you know, measured inhibition in vivo at 50 mg/kg for NS(=O)(=O)c1ccc(N2N=C(c3ccccc3)CC2c2cn(-c3ccccc3)nc2-c2ccc(F)cc2)cc1 (stereo not drawn) came out at 22

Just so you know, measured inhibition in vivo at 50 mg/kg for NS(=O)(=O)c1ccc(N2N=C(c3ccc(F)cc3)CC2c2cn(-c3ccccc3)nc2-c2ccc(F)cc2)cc1 (stereo not drawn) came out at 16

Just so you know, measured inhibition in vivo at 50 mg/kg for NS(=O)(=O)c1ccc(N2N=C(c3ccccc3)CC2c2cn(-c3ccccc3)nc2-c2ccc(Br)cc2)cc1 (stereo not drawn) came out at 38

Just so you know, measured inhibition in vivo at 50 mg/kg for Cc1ccc(C2=NN(c3ccc(S(N)(=O)=O)cc3)C(c3cn(-c4ccccc4)nc3-c3ccccc3)C2)cc1 (stereo not drawn) came out at 27

Just so you know, measured inhibition in vivo at 50 mg/kg for Cc1ccc(-c2nn(-c3ccccc3)cc2C2CC(c3ccccc3)=NN2c2ccc(S(N)(=O)=O)cc2)cc1 (stereo not drawn) came out at 22

###

Test system: Bacillus subtilis
ASSAY_EXPLANATION: Antimicrobial activity against Bacillus subtilis MTCC 121 at 4 mg/ml after 24 hrs by agar diffusion method
Type: functional
REPORTED_CONDITIONS: MTCC 121, 24 h, read-out: DIZ
PROPERTY_NAME: zone of inhibition at 4000 µg/mL (mm)
Respond with the bare value in mm.

Illustrative cases are given below, each with its answer.
| COMPOUND | STUDY_TARGET | zone of inhibition at 4000 µg/mL (mm) |
| --- | --- | --- |
| Cc1ccc(C2=NN(c3ccc(S(N)(=O)=O)cc3)C(c3cn(-c4ccccc4)nc3-c3ccc(C)cc3)C2)cc1 (centres undefined) | Bacillus subtilis | 10.7 |
| NS(=O)(=O)c1ccc(N2N=C(c3ccccc3)CC2c2cn(-c3ccccc3)nc2-c2ccc(Br)cc2)cc1 (centres undefined) | Bacillus subtilis | 23.7 |
| Cc1ccc(-c2nn(-c3ccccc3)cc2C2CC(c3ccc(F)cc3)=NN2c2ccc(S(N)(=O)=O)cc2)cc1 (centres undefined) | Bacillus subtilis | 16.3 |

// below: zone of inhibition at 4000 µg/mL requested for another compound
Just so you know, measured zone of inhibition at 4000 µg/mL for O=C(O)c1cn(C2CC2)c2cc(N3CCNCC3)c(F)cc2c1=O [CIPROFLOXACIN] came out at 29.2

###

Test system: Escherichia coli
ASSAY_EXPLANATION: Antimicrobial activity against Escherichia coli MTCC 51 at 4 mg/ml after 24 hrs by agar diffusion method
Assay type: functional
REPORTED_CONDITIONS: MTCC 51, 24 h, read-out: DIZ
Measured zone of inhibition at 4000 µg/mL by item
Respond with the bare value in mm.

| MOLECULE | PROPERTY_NAME | OBSERVED_MEASUREMENT |
| --- | --- | --- |
| Cc1ccc(C2=NN(c3ccc(S(N)(=O)=O)cc3)C(c3cn(-c4ccccc4)nc3-c3ccc(C)cc3)C2)cc1 (configuration not stated) | zone of inhibition at 4000 µg/mL | 10.7 |
| NS(=O)(=O)c1ccc(N2N=C(c3ccc(F)cc3)CC2c2cn(-c3ccccc3)nc2-c2ccc(Br)cc2)cc1 (configuration not stated) | zone of inhibition at 4000 µg/mL | 9.33 |
| Cc1ccc(-c2nn(-c3ccccc3)cc2C2CC(c3ccc(F)cc3)=NN2c2ccc(S(N)(=O)=O)cc2)cc1 (configuration not stated) | zone of inhibition at 4000 µg/mL | 11.7 |
| Cc1ccc(-c2nn(-c3ccccc3)cc2C2CC(c3ccccc3)=NN2c2ccc(S(N)(=O)=O)cc2)cc1 (configuration not stated) | zone of inhibition at 4000 µg/mL | 11.7 |
| NS(=O)(=O)c1ccc(N2N=C(c3ccc(F)cc3)CC2c2cn(-c3ccccc3)nc2-c2ccccc2)cc1 (configuration not stated) | zone of inhibition at 4000 µg/mL | 21.7 |
| NS(=O)(=O)c1ccc(N2N=C(c3ccc(Br)cc3)CC2c2cn(-c3ccccc3)nc2-c2ccccc2)cc1 (configuration not stated) | zone of inhibition at 4000 µg/mL | 11.7 |

Just so you know, measured zone of inhibition at 4000 µg/mL for O=C(O)c1cn(C2CC2)c2cc(N3CCNCC3)c(F)cc2c1=O came out at 28.6

Just so you know, measured zone of inhibition at 4000 µg/mL for NS(=O)(=O)c1ccc(N2N=C(c3ccccc3)CC2c2cn(-c3ccccc3)nc2-c2ccc(F)cc2)cc1 (configuration not stated) came out at 17.3

Just so you know, measured zone of inhibition at 4000 µg/mL for NS(=O)(=O)c1ccc(N2N=C(c3ccccc3)CC2c2cn(-c3ccccc3)nc2-c2ccc(Br)cc2)cc1 (configuration not stated) came out at 17.3

Just so you know, measured zone of inhibition at 4000 µg/mL for NS(=O)(=O)c1ccc(N2N=C(c3ccc(F)cc3)CC2c2cn(-c3ccccc3)nc2-c2ccc(F)cc2)cc1 (configuration not stated) came out at 10.7

Just so you know, measured zone of inhibition at 4000 µg/mL for Cc1ccc(C2=NN(c3ccc(S(N)(=O)=O)cc3)C(c3cn(-c4ccccc4)nc3-c3ccccc3)C2)cc1 (configuration not stated) came out at 11.7

Just so you know, measured zone of inhibition at 4000 µg/mL for NS(=O)(=O)c1ccc(N2N=C(c3ccccc3)CC2c2cn(-c3ccccc3)nc2-c2ccccc2)cc1 (configuration not stated) came out at 11.7
